Where these numbers come from: paper PMC4521925

# target.entity: h17β-HSD1 (Homo sapiens, UniProt P14061)
# Construct: h17β-HSD1 was obtained after precipitation with ammonium sulfate from the cytosolic fraction
# Sequence (P14061 whole entry): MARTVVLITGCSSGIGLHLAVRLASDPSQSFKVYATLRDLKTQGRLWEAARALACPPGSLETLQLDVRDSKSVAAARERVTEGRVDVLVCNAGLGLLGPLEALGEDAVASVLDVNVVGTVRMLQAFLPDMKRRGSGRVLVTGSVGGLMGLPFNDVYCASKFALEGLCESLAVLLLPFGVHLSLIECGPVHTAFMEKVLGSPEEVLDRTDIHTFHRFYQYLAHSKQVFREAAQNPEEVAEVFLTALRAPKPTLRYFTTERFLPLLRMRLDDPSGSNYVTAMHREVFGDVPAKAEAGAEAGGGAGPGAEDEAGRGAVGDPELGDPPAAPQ
# experiment.notes: Inhibition of h17β-HSD1 in cell-free assay
# measurement.setup: human placental cytosolic fraction, substrate E1 [500 nM], cofactor NADH [500 μM]
Reported pIC50 by item:
# pIC50 = -log10(concentration in molar units)

1. COc1cccc(N(C)C(=O)c2ccc(-c3ccc(C)c(C)c3)cc2)c1 [Compound 17a]: 4.88

### Prompt # return pIC50 of COc1cccc(N(C)C(=O)c2ccc(-c3cccc(Cl)c3)cc2)c1 [Compound 14a] (system: h17β-HSD1 (Homo sapiens, UniProt P14061))
### Response 4.90

### Prompt # return pIC50 of COc1cccc(N(C)C(=O)c2ccc(-c3cccc(N(C)C)c3)cc2)c1 [Compound 15a] (system: h17β-HSD1 (Homo sapiens, UniProt P14061))
### Response 5.30

### Prompt # return pIC50 of COc1cccc(CN(C)C(=O)c2ccc(-c3cccc(C)c3F)cc2)c1 [Compound 25a] (system: h17β-HSD1 (Homo sapiens, UniProt P14061))
### Response 4.06
